Biological target: System xc− (Sxc−, glutamate/cystine antiporter) (Homo sapiens)
Construct: A number of glioma cell lines, including SNB-19, express markedly higher levels of Sxc^−; host or cells: SNB-19 human glioma cells
Assay: Inhibition of 3H-L-Glu uptake into SNB-19 glioma cells under Cl-dependent (Na-free) conditions
Type: cell-based
Settings: slope replot (FIG. 3), n=5; read-out: average Ki from LWB slope vs. [I] replot
MEASUREMENT NAME: pKi
When answering, recall that pKi equals minus log10 of the concentration in mol/L, and write that number alone.

Challenge: Return reported pKi; argument: C/C(=N\Nc1cc(C(F)(F)F)cc(C(F)(F)F)c1)c1c(C(=O)O)noc1Cc1ccc(C(F)(F)F)cc1
Response given: 5.52

###

Target: System xc− (Sxc−, glutamate/cystine antiporter) (Homo sapiens, UniProt Q9UPY5)
Construct: A number of glioma cell lines, including SNB-19, express markedly higher levels of Sxc^−; host or cells: SNB-19 human glioma cells
Sequence (Q9UPY5 1-501): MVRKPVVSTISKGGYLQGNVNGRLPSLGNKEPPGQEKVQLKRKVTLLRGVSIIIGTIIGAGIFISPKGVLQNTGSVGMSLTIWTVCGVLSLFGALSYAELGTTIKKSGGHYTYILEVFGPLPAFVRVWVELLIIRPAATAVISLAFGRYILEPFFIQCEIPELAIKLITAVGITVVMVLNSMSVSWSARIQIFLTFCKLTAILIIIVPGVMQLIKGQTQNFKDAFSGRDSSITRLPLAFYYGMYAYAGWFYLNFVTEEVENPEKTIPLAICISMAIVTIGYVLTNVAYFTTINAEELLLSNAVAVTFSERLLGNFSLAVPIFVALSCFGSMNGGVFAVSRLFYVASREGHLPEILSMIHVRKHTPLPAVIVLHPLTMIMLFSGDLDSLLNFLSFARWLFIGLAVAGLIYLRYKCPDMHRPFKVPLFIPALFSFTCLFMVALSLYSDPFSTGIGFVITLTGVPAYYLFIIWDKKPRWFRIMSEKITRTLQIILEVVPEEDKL
Sequence (P08195 1-529 partner): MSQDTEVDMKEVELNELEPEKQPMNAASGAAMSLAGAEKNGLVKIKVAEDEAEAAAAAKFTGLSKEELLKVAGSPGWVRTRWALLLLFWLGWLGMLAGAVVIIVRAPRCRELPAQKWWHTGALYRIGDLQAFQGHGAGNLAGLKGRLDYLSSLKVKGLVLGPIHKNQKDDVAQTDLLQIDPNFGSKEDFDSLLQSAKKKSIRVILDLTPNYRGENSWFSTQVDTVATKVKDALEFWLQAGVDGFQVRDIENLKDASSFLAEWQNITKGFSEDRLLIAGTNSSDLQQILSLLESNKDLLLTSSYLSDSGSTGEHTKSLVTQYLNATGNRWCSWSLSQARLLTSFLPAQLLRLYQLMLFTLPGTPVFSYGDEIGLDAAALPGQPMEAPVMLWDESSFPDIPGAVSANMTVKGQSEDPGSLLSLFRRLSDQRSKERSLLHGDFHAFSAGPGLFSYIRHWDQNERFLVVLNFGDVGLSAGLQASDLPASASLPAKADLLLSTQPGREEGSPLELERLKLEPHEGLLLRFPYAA
Test: Inhibition of 3H-L-Glu uptake into SNB-19 glioma cells under Cl-dependent (Na-free) conditions
Type: cell-based
Settings: compound 100 μM; SNB-19 cells; 100 μM 3H-L-Glu; smaller number = greater inhibition
Experimental: SNB-19 glioma cells, purchased from American Type Culture Collection (Manassas, Va.), were grown in DMEM/F-12 medium (pH 7.4) containing 1 mM pyruvate and 16 mM NaHCO3 and supplemented with 10% fetal calf serum. […] Protein concentrations were determined by the bicinchoninic acid (BCA) method (Pierce). Uptake of ^3H-L-Glu into cultured cells was quantified using a modification of the procedure of Martin and Shane as previously described by Patel et al. (supra). […]
# binarize 3H-L-Glu Uptake (% control): threshold 20 % control inclusive, high side fulfilled, low side not fulfilled

Challenge: Is 3H-L-Glu Uptake (% control) for Cc1onc(-c2c3ccccc3c(Cl)c3ccccc23)c1C(=O)NC(Cc1cc(Br)c(O)c(Br)c1)C(=O)O (stereo not drawn) at or above 20 % control?
Response given: not fulfilled

Challenge: Is 3H-L-Glu Uptake (% control) for COc1ccc2ccccc2c1-c1noc(C)c1C(=O)NC(Cc1cc(Br)c(O)c(Br)c1)C(=O)O (stereo not drawn) at or above 20 % control?
Response given: fulfilled

Challenge: Is 3H-L-Glu Uptake (% control) for Cc1onc(-c2cccc3ccccc23)c1C(=O)NC(Cc1cc(Br)c(O)c(Br)c1)C(=O)O (stereo not drawn) at or above 20 % control?
Response given: fulfilled

Challenge: Is 3H-L-Glu Uptake (% control) for Cc1onc(-c2c(OCc3ccccc3)ccc3ccccc23)c1C(=O)N[C@@H](Cc1cc(Br)c(O)c(Br)c1)C(=O)O at or above 20 % control?
Response given: not fulfilled

Challenge: Is 3H-L-Glu Uptake (% control) for CN(C)c1cccc2c(S(=O)(=O)NC(Cc3cc(Br)c(O)c(Br)c3)C(=O)O)cccc12 (stereo not drawn) at or above 20 % control?
Response given: fulfilled

Challenge: Is 3H-L-Glu Uptake (% control) for C/C(=N\Nc1cc(C(F)(F)F)cc(C(F)(F)F)c1)c1c(C(=O)O)noc1Cc1ccc(C(F)(F)F)cc1 at or above 20 % control?
Response given: not fulfilled
